target: 4R0N human recombinant tau (Homo sapiens, UniProt P10636, P618L); experiment: In vitro tau aggregation, thioflavin T fluorescence assay
Sequence (P10636 1-383 isoform P10636-6 P243L): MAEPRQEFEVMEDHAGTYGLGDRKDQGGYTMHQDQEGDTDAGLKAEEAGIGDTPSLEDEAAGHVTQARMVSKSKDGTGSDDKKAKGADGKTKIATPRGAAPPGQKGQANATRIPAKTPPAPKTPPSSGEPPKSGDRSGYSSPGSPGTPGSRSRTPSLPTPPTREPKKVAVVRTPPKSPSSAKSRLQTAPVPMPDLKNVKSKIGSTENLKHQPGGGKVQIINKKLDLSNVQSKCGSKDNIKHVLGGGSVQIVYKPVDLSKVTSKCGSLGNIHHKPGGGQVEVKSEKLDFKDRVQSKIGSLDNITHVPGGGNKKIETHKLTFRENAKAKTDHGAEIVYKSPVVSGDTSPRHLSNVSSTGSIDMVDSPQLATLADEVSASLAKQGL
Please go through the items and note down their pIC50.
Answers are plain numbers, as −log10 of the molar value.

>  <compound>
CCn1c(=O)/c(=C2\Sc3cc(Cl)ccc3N2C)s/c1=C\c1scc[n+]1Cc1ccccc1.[Cl-]

>  <numeric-value>
6.09

$$$$

Prompt line: Looking for the measured pIC50 of CC1=C(C(=O)OCc2ccccc2)C(c2ccc(-c3ccccc3)cc2)NC(=O)N1CCCCCC(=O)O (centres unmarked) [dihydropyrimidine] , can you help?
Response line: 4.64
